Target desc: NEK7 (Homo sapiens (Human), UniProt Q8TDX7+Q96SW2)
Sequence (Q8TDX7 whole entry, one chain of several): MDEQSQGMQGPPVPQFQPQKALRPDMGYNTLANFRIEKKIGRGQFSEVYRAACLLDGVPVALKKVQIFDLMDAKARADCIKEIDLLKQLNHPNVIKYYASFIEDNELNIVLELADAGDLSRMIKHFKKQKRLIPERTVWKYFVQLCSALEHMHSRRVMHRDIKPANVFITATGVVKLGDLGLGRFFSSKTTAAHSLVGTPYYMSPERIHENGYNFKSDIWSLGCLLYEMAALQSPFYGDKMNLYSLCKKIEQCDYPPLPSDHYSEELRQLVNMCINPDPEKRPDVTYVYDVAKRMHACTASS
Experiment: NEK7 NanoBiT degradation assay in Cal51 NEK7 NanoBiT cell line
Type: cell-based
Condition info: Cal51 NEK7 NanoBiT cells, 24 hours; read-out: NEK7 NanoBiT DC50
Measurement kind: DC50 (nM)

The cases that follow already have their DC50 on record.
>>> df
                                   compound  test_result
0  CC(C)(C(=O)NCc1cc(Cl)c(C2CCC(=O)NC2=O)c(Cl)c1)c1cc(F)c(S(N)(=O)=O)c(F)c1 (stereo not shown)            5
1  CC(C)(C(=O)NCc1cc(Cl)c(C2CCC(=O)NC2=O)c(Cl)c1)c1ccc2nonc2c1 (stereo not shown)          0.4
2  CC(C)(C(=O)NCc1cc(F)c(C2CCC(=O)NC2=O)c(Cl)c1)c1cc(F)ccn1 (stereo not shown)          480
3  CC(C)(C(=O)NCc1cc(Cl)c(C2CCC(=O)NC2=O)c(Cl)c1)c1cnc(C#N)nc1 (stereo not shown)           56
4  CC(C)(C(=O)NCc1cc(Cl)c(C2CCC(=O)NC2=O)c(Cl)c1)c1nocc1C1CC1 (stereo not shown)           22

a = CC(C)(C(=O)NCc1cc(Cl)c(C2CCC(=O)NC2=O)c(Cl)c1)c1cnccn1 (stereo not shown)
b = CC(C)(C(=O)NCc1cc(Cl)c(C2CCC(=O)NC2=O)c(Cl)c1)c1cc(C2CC2)on1 (stereo not shown)
c = O=C1CCC(c2c(Cl)cc(CNC(=O)C3(c4ccc(F)cc4)CC(F)(F)C3)cc2Cl)C(=O)N1 (stereo not shown)
Order the records, beginning with the lowest DC50 and ending with the highest. Labels, requested order. c, b, a
(c: 8 nM, b: 15 nM, a: 54 nM)

a = CC(C)(C(=O)NCc1cc(Cl)c(C2CCC(=O)NC2=O)c(Cl)c1)c1ccc(C(N)=O)c(F)c1 (stereo not shown)
b = CC(C)(C(=O)NCc1cc(Cl)c(C2CCC(=O)NC2=O)c(Cl)c1)c1cc[nH]n1 (stereo not shown)
c = CC(C)(C(=O)NCc1cc(Cl)c(C2CCC(=O)NC2=O)c(C#N)c1)c1ccccc1 (stereo not shown)
d = CC(C)(C(=O)NCc1cc(Cl)c(C2CCC(=O)NC2=O)c(Cl)c1)c1cnc(Cl)cn1 (stereo not shown)
Given 4 compounds, produce a descending ranking by DC50. Labels, requested order. c, b, a, d

---

Target desc: CRBN-DDB1 (Homo sapiens (Human), UniProt Q96SW2)
Sequence (Q96SW2 whole entry): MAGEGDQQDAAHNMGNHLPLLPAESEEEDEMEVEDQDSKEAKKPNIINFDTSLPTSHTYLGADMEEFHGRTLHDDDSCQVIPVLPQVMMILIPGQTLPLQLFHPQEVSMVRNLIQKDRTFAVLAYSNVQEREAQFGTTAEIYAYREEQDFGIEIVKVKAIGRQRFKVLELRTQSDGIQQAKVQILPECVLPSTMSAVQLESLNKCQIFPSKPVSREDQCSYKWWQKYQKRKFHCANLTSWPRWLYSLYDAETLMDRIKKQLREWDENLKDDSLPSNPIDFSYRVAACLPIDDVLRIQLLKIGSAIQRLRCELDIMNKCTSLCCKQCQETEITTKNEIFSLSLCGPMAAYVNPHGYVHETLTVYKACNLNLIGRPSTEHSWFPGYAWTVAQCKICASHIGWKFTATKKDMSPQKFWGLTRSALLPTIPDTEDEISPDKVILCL
Sequence (Q16531 whole entry partner): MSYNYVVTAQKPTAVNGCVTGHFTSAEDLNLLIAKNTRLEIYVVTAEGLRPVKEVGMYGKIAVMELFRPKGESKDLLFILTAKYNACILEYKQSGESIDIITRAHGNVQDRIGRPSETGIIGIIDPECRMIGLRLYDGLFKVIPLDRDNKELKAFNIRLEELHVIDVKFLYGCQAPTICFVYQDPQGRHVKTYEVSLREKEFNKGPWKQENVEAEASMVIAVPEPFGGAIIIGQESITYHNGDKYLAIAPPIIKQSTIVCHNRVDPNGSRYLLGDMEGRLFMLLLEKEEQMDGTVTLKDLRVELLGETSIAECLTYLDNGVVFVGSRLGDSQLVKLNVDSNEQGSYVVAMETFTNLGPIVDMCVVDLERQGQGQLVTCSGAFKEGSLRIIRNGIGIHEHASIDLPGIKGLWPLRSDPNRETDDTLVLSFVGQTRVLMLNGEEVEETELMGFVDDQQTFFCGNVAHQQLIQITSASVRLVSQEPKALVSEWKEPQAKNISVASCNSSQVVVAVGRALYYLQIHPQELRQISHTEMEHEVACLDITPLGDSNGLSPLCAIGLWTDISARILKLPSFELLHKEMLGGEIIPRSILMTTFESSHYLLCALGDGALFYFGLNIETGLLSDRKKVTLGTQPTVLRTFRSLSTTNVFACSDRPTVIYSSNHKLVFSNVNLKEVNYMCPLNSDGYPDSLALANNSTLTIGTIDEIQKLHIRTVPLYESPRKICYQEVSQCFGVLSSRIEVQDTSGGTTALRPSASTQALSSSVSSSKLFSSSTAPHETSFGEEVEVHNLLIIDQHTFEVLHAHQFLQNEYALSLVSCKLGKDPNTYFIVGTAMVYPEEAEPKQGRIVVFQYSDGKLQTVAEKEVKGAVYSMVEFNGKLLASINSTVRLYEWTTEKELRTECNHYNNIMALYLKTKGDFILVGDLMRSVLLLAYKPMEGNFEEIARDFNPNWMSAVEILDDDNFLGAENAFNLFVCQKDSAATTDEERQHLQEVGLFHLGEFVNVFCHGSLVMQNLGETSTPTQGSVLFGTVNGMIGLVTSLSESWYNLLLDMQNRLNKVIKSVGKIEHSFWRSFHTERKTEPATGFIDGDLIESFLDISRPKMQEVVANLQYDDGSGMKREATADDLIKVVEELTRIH
Experiment: Compound binding to CRBN by HTRF assay
pEC50: −log10 of the molar value.
Measurement kind: pEC50

The cases that follow already have their pEC50 on record.
                                   molecule                               target_desc  test_result
0  Cn1ncc2ccc(C(C)(C)C(=O)NCc3cc(Cl)c(C4CCC(=O)NC4=O)c(Cl)c3)cc21 (stereo not drawn)  CRBN-DDB1 (Homo sapiens (Human), UniProt Q96SW2)         7.22
1  Cc1conc1C(C)(C)C(=O)NCc1cc(F)c(C2CCC(=O)NC2=O)c(Cl)c1 (stereo not drawn)  CRBN-DDB1 (Homo sapiens (Human), UniProt Q96SW2)         6.46
2  CC(C)(C(=O)NCc1cc(Cl)c(C2CCC(=O)NC2=O)c(Cl)c1)c1ccc2ncoc2n1 (stereo not drawn)  CRBN-DDB1 (Homo sapiens (Human), UniProt Q96SW2)         6.74
3  Cc1nnc(C(C)(C)C(=O)NCc2cc(Cl)c(C3CCC(=O)NC3=O)c(Cl)c2)o1 (stereo not drawn)  CRBN-DDB1 (Homo sapiens (Human), UniProt Q96SW2)         6.49
4  CC(C)(C(=O)NCc1ccc(C2CCC(=O)NC2=O)c(Cl)c1)c1ccccc1 (stereo not drawn)  CRBN-DDB1 (Homo sapiens (Human), UniProt Q96SW2)         6.74
5  CC(C)(C(=O)NCc1cc(Cl)c(C2CCC(=O)NC2=O)c(Cl)c1)c1ccc(OC(F)F)nn1 (stereo not drawn)  CRBN-DDB1 (Homo sapiens (Human), UniProt Q96SW2)         6.34
6  CC(C)(C(=O)NCc1cc(Cl)c(C2CCC(=O)NC2=O)c(Cl)c1)c1ccc(S(C)(=O)=O)cc1 (stereo not drawn)  CRBN-DDB1 (Homo sapiens (Human), UniProt Q96SW2)         7.05
7  CC(C)(C(=O)NCc1cc(Cl)c(C2CCC(=O)NC2=O)c(Cl)c1)c1ncc(C(F)F)cn1 (stereo not drawn)  CRBN-DDB1 (Homo sapiens (Human), UniProt Q96SW2)         6.72

A = Cc1cc(C(C)(C)C(=O)NCc2cc(Cl)c(C3CCC(=O)NC3=O)c(Cl)c2)no1 (stereo not drawn)
B = CC(C)(C(=O)NCc1cc(Cl)c(C2CCC(=O)NC2=O)c(Cl)c1)c1ccc(S(N)(=O)=O)c(F)c1 (stereo not drawn)
C = Cc1ccc(C(C)(C)C(=O)NCc2cc(F)c(C3CCC(=O)NC3=O)c(Cl)c2)nn1 (stereo not drawn)
D = Cc1nnc(C2(C(=O)NCc3cc(Cl)c(C4CCC(=O)NC4=O)c(Cl)c3)CCC2)o1 (stereo not drawn)
Given 4 molecules, produce a descending ranking by pEC50. Labels, requested order. B, D, C, A
(B: 7.30, D: 6.89, C: 6.68, A: 6.37)

---

Target desc: CRBN-DDB1 (Homo sapiens (Human))
Experiment: Compound binding to CRBN by HTRF assay
Condition info: HTRF class; Cereblon binding
Parameter EC50: see the listing below.

The cases that follow already have their EC50 on record.
In [3]: df
Out[3]:
                                   molecule                       target_desc  test_result
0  CC(C)(C(=O)NCc1cc(Cl)c(C2CCC(=O)NC2=O)c(Cl)c1)c1cnc(CO)cn1 (stereo not shown)  CRBN-DDB1 (Homo sapiens (Human))  0.1 to 1 µM
1  CC(C)(C(=O)NCc1cc(Cl)c(C2CCC(=O)NC2=O)c(Cl)c1)c1nccc(C(F)F)n1 (stereo not shown)  CRBN-DDB1 (Homo sapiens (Human))  0.1 to 1 µM
2  CC(C)(C(=O)NCc1cc(Cl)c(C2CCC(=O)NC2=O)c(Cl)c1)c1ccc(F)cc1 (stereo not shown)  CRBN-DDB1 (Homo sapiens (Human))     ≤ 0.1 µM

I'd like to know its EC50. The molecule in question is O=C1CCC(c2c(Cl)cc(CNC(=O)C3(c4ncccn4)CCC3)cc2Cl)C(=O)N1 (stereo not shown) 0.1 to 1 µM

---

Parameter pEC50: see the listing below.
Target desc: CRBN-DDB1 (Homo sapiens (Human))
Experiment: Compound binding to CRBN by HTRF assay
Condition info: HTRF class; Cereblon binding
pEC50: −log10 of the molar value. Counter-ions that a name gives are not always drawn.

The cases that follow already have their pEC50 on record.
In [3]: df
Out[3]:
                                   compound  measurement_kind   test_result
0  CN1CCC(C(=O)NCc2cc(Cl)c(C3CCC(=O)NC3=O)c(Cl)c2)(c2ccc(F)cc2)CC1 (stereo not drawn) [Compound 135, formate]             pEC50        ≥ 7.00
1  CC(C)(C(=O)NCc1cc(Cl)c(C2CCC(=O)NC2=O)c(Cl)c1)c1ccc2c(c1)S(=O)(=O)NC2 (stereo not drawn) [Compound 32]             pEC50  6.00 to 7.00
2  O=C1CCC(c2c(Cl)cc(CNC(=O)C3(c4ccccc4)CCOCC3)cc2Cl)C(=O)N1 (stereo not drawn) [Compound 128]             pEC50        ≥ 7.00
3  Cc1ncc(C(C)(C)C(=O)NCc2cc(F)c(C3CCC(=O)NC3=O)c(Cl)c2)o1 (stereo not drawn) [Compound 281]             pEC50  6.00 to 7.00
4  Cn1c(F)cc(C(C)(C)C(=O)NCc2cc(Cl)c(C3CCC(=O)NC3=O)c(Cl)c2)cc1=O (stereo not drawn) [Compound 172]             pEC50  6.00 to 7.00
5  CC(C)(C(=O)NCc1cc(Cl)c(C2CCC(=O)NC2=O)c(Cl)c1)c1ccc(C(F)(F)F)nn1 (stereo not drawn) [Compound 191]             pEC50  6.00 to 7.00
6  CN1Cc2ccccc2CC1C(=O)NCc1cc(Cl)c(C2CCC(=O)NC2=O)c(Cl)c1 (stereo not drawn) [Compound 48]             pEC50  6.00 to 7.00
7  CC(C)(C(=O)NCc1cc(Cl)c(C2CCC(=O)NC2=O)c(Cl)c1)c1cccnn1 (stereo not drawn) [Compound 7]             pEC50  6.00 to 7.00
8  CC(C)(C(=O)NCc1cc(Cl)c(C2CCC(=O)NC2=O)c(Cl)c1)c1ccc(C#N)cc1 (stereo not drawn) [Compound 29]             pEC50        ≥ 7.00
9  Cc1nnc(C(C)(C)C(=O)NCc2cc(Cl)c([C@@H]3CCC(=O)NC3=O)c(Cl)c2)o1 (single isomer, unassigned) [Compound 224]             pEC50        ≥ 7.00

Return pEC50 measured with CRBN-DDB1 (Homo sapiens (Human)) given this compound: Cc1cnc(C(C)(C)C(=O)NCc2cc(Cl)c([C@]3(F)CCC(=O)NC3=O)c(Cl)c2)nc1 (single isomer, unassigned) [Compound 243] < 6.00

Return pEC50 measured with CRBN-DDB1 (Homo sapiens (Human)) given this compound: Cc1ccc(C(C)(C)C(=O)NCc2cc(Cl)c(C3CCC(=O)NC3=O)c(Cl)c2)cn1 (stereo not drawn) [Compound 205] 6.00 to 7.00

Return pEC50 measured with CRBN-DDB1 (Homo sapiens (Human)) given this compound: CC(C)(O)c1cnc(C(C)(C)C(=O)NCc2cc(Cl)c(C3CCC(=O)NC3=O)c(Cl)c2)cn1 (stereo not drawn) [Compound 238] 6.00 to 7.00

Return pEC50 measured with CRBN-DDB1 (Homo sapiens (Human)) given this compound: COc1conc1C(C)(C)C(=O)NCc1cc(F)c(C2CCC(=O)NC2=O)c(Cl)c1 (stereo not drawn) [Compound 268] 6.00 to 7.00

Return pEC50 measured with CRBN-DDB1 (Homo sapiens (Human)) given this compound: CC(C)(C(=O)NCc1cc(Cl)c(C2CCC(=O)NC2=O)c(Cl)c1)c1ncc(CC(F)(F)F)cn1 (stereo not drawn) [Compound 195] 6.00 to 7.00

From: patent US20250243180A1
